Recorded values, source patent US20220401464A1.

Quick reference for amplitude among some compounds
tested on: CYR61 gene expression; assay: CYR61 gene expression in ARPE-19/HPV16 cells treated for 24 hours, Affymetrix probe sets; assay type: cell-based, human; design: scale not given here; settings: probe 201289_at, 10 uM
Counter-ions that a name gives are not always drawn.
# print the numeric value only

[[record]]
compound = "CC[C@H](C)C(=O)O[C@H]1C[C@@H](C)C=C2C=C[C@H](C)[C@H](CC[C@@H]3C[C@@H](O)CC(=O)O3)[C@H]21"
value_type = "amplitude"
reported_measurement = "−1.412"

[[record]]
compound = "COc1cccc2c1C(=O)c1c(O)c3c(c(O)c1C2=O)C[C@@](O)(C(=O)CO)C[C@@H]3O[C@H]1C[C@H](N)[C@H](O)[C@H](C)O1 [Doxorubicin HCl]"
value_type = "amplitude"
reported_measurement = "−1.967"

[[record]]
compound = "CCC(C)(C)C(=O)O[C@H]1C[C@@H](C)C=C2C=C[C@H](C)[C@H](CC[C@@H]3C[C@@H](O)CC(=O)O3)[C@H]21"
value_type = "amplitude"
reported_measurement = "−1.378"

[[record]]
compound = "CC(=O)[C@]1(O)Cc2c(O)c3c(c(O)c2[C@@H](O[C@H]2C[C@H](N)[C@H](O)[C@H](C)O2)C1)C(=O)c1ccccc1C3=O [Idarubicin HCl]"
value_type = "amplitude"
reported_measurement = "−1.899"


// next item, amplitude requested
Q: Query amplitude for COc1cccc2c1C(=O)c1c(O)c3c(c(O)c1C2=O)C[C@@](O)(C(C)=O)C[C@@H]3O[C@H]1C[C@H](N)[C@H](O)[C@H](C)O1 [Daunorubicin HCl]
Ans: −1.921
